- targetEntity: human CLDN18.2-mRFP Q29M (human)
- Sequence (chain, as listed by the source Q29M Q29M limits assumed): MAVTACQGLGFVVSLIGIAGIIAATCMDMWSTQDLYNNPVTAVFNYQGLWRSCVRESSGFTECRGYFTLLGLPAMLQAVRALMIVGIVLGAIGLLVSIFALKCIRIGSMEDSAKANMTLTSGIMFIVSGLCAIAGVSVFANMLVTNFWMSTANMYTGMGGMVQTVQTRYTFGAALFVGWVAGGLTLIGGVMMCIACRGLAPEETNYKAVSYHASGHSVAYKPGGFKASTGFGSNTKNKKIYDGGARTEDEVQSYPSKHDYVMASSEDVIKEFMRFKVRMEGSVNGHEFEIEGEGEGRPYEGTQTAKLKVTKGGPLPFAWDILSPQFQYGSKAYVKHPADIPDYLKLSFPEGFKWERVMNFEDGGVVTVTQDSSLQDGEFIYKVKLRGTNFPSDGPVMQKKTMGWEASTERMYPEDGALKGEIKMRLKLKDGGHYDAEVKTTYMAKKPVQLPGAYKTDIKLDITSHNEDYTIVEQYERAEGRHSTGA
- assayInfo: FACS, transfected HEK293, 10 µg/ml antibody;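 further: antibody binding read by flow cytometry with a FITC-labelled anti-human IgG secondary, gated on RFP-positive cells, each mutant signal expressed against wild-type CLDN18.2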
Form field: binding percentage vs wild-type CLDN18.2 (one value per entry).
measurementName: binding percentage vs wild-type CLDN18.2 (%)

{"binder": "59A9-C (antibody, human IgG1, V domains shown, also called chimeric 59A9) VH: QITQKESGPGILQPSQTLSLTCSLSGFSLSTYFIGVGWIRQPSGKGLEWLAHIWWNDNKYYNTALKSRLTISKDTSNNQVFLKIASVDTADTATYYCARMGSGAWFTYWGQGTLVTVSA VL: DIVMTQSPSSLTVTAGEKVTMSCKSSQSLLNSGNQKNYLTWYQQKPGQPPKLLIYWASTRESGVPDRFTGSGSGTDFTLTISSVQAEDLAVYYCQNDYYYPLTFGSGTKLEIK", "measurementName": "binding percentage vs wild-type CLDN18.2", "valueUnits": "%", "experimentalResult": 90.4}
{"binder": "11F12-C (antibody, human IgG1, V domains shown, also called chimeric 11F12) VH: EFQLQQSGPELEKPGASVRISCKTSGYSFTGYNMNWVKQSNGESLEWIGYIDPYYGGTRYNQKFKGKATLTVDKSSSTAYMQLKSLTSEDSAVYYCARSYYGNAFDYWGQGTTLTVSS VL: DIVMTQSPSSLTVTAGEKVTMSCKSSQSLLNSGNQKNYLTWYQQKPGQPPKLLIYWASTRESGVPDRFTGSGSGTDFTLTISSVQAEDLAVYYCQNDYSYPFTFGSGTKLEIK", "measurementName": "binding percentage vs wild-type CLDN18.2", "valueUnits": "%", "experimentalResult": 108}
